Record form. Attribute: pEC50. Fill in for each entry.
- tested_target: CXCR3 (Homo sapiens)
- Construct: host or cells: CHO-K1 (cAMP Hunter CHOK1 CXCR3 Gi cell line)
- assay_text: CXCR3 cAMP agonist assay (cAMP Hunter CHOK1 CXCR3 Gi cell line, forskolin-stimulated, HitHunter cAMP detection)
- Type: cell-based
- test_conditions: cAMP Hunter CHOK1 CXCR3 Gi cells, 20 μM forskolin, 30 minutes; read-out: Activity (CXCR3 cAMP agonist assay compound EC50)
pEC50: −log10 of the molar value.

The cases that follow already have their pEC50 on record.
COc1c(C)cccc1NC(=O)[C@H](CCN)NC(=O)[C@@H]1Cc2ccccc2CN1C(=O)CCC(=O)c1ccccc1	6.60 to 7.30
O=C(CCC(=O)N1Cc2ccccc2C[C@H]1C(=O)N[C@@H](CCN1CCS(=O)(=O)CC1)C(=O)Nc1ccc2c(c1)CCC2)c1ccccc1	6.60 to 7.30
NC(=O)NCCCC[C@H](NC(=O)[C@@H]1Cc2ccccc2CN1C(=O)CCC(=O)c1ccccc1)C(=O)Nc1ccc(Cl)c(Cl)c1	6.30 to 6.60
Cc1cc(NC(=O)[C@H](CCN)NC(=O)[C@@H]2Cc3ccccc3CN2C(=O)CCC(=O)N2CCCC2)ccc1Cl	> 7.30
Cc1cc(NC(=O)[C@H](CCN)NC(=O)[C@@H]2Cc3ccccc3CN2C(=O)CCC(=O)N2CCCCCC2)ccc1Cl	> 7.30

Turning now to a further record.
For the record COc1ccc(C)cc1NC(=O)[C@H](CCN)NC(=O)[C@@H]1Cc2ccccc2CN1C(=O)CCC(=O)c1ccccc1 , what value of pEC50 is listed for CXCR3 (Homo sapiens)?
> 7.30

* * *

- tested_target: CXCR3 (Homo sapiens, UniProt P49682)
- Construct: host or cells: CHO-K1 (cAMP Hunter CHOK1 CXCR3 Gi cell line)
- Sequence (P49682 whole entry): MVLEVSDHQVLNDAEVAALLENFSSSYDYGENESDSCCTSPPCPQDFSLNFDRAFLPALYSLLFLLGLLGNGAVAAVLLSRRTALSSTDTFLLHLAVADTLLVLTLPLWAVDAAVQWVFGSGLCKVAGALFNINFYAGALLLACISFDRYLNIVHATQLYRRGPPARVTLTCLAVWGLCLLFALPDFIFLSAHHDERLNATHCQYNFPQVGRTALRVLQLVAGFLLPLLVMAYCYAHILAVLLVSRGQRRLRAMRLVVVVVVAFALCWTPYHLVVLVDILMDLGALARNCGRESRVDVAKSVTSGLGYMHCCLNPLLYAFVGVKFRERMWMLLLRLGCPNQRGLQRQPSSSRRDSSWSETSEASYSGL
- assay_text: CXCR3 cAMP agonist assay (cAMP Hunter CHOK1 CXCR3 Gi cell line, forskolin-stimulated, HitHunter cAMP detection)
- Format: cell-based
- test_conditions: cAMP Hunter CHOK1 CXCR3 Gi cells, 20 μM forskolin, 30 minutes; read-out: Activity (CXCR3 cAMP agonist assay compound EC50)
pEC50: −log10 of the molar value.
property_name: pEC50

Example results:
Cc1cc(NC(=O)[C@H](CCN)NC(=O)[C@@H]2Cc3ccccc3CN2C(=O)CCC(=O)N2CCC(C#N)CC2)ccc1Cl	> 7.30
Cc1cc(NC(=O)[C@H](CCCCN)NC(=O)[C@@H]2Cc3ccccc3CN2C(=O)CCC(=O)c2cccc(C(F)(F)F)c2)ccc1Cl	> 7.30

Let us examine a further case.
What value of pEC50 has been recorded for this entry: Cc1ccc(C(=O)CCC(=O)N2Cc3ccccc3C[C@H]2C(=O)N[C@@H](CCCCN)C(=O)Nc2ccc(Cl)c(C)c2)cc1F
< 6.30

* * *

- assay_text: Mouse pharmacokinetics after oral gavage, plasma drug concentration by LC-MS/MS (C57BL/6)
- Assay type: in vivo, C57bl/6 mice
- test_conditions: mouse, plasma, C57BL/6, 60 mg/kg, female mice, read-out: AUC0-24
property_name: AUC(0-t)
Answer format: value, then unit.

Guide cases for AUC(0-t), answers given:
Cc1cc(NC(=O)[C@H](CCN)NC(=O)[C@@H]2Cc3ccccc3CN2C(=O)CCC(=O)N2CCCC(C)(C)C2)cc(C)c1Cl	12.4 µM·h
Cc1c(Cl)cc(NC(=O)[C@H](CCN)NC(=O)[C@@H]2Cc3ccccc3CN2C(=O)CCC(=O)c2ccccc2)cc1Cl	11.7 µM·h
Cc1cc(NC(=O)[C@H](CCN)NC(=O)[C@@H]2Cc3ccccc3CN2C(=O)CCC(=O)N(C)CC(C)(C)C)ccc1Cl	2.1 µM·h

Fill in AUC(0-t) for each of the 3 compounds listed.
1. Cc1cc(NC(=O)[C@H](CC23CC(N)(C2)C3)NC(=O)[C@@H]2Cc3ccccc3CN2C(=O)CCC(=O)c2ccccc2)ccc1Cl
2. NCC[C@H](NC(=O)[C@@H]1Cc2ccccc2CN1C(=O)CCC(=O)c1ccccc1)C(=O)Nc1ccc2c(c1)CCC2
3. NCC[C@H](NC(=O)[C@@H]1Cc2ccccc2CN1C(=O)CCC(=O)N1CCCC12CCC2)C(=O)Nc1ccc(Cl)c(Cl)c1F

1: 48 µM·h; 2: 27.5 µM·h; 3: 8.3 µM·h
